# assay_comment: effects on testis function: body, testis and seminal vesicle weight
# Assay type: in vivo, mice (ICR-Swiss adult male)
# condition_details: average; 0.2 mg per day s.c., 10 days

compound: COc1ccc2c3c(ccc2c1)C1=NCCC1(C)CC3 (stereo not shown)
Body Weight: 32.3 g
--
compound: CC12CCc3cc(O)ccc3C1=NNC2=O (racemic)
Body Weight: 35.7 g
--
compound: Oc1ccc2c(c1)CCc1cn[nH]c1-2 [Compound 2, 4,5-Dihydro-1H-benz[g]indazol-7-ol]
Body Weight: 35.7 g
--
compound: COc1ccc2c3c(ccc2c1)-c1[nH]ncc1CC3 [Compound 11b]
Body Weight: 34.0 g
